I'd be grateful if you could share measured viability, T/C for these entries.
- Tested on: 276233-004-R-J1-PDC complex spheroid viability;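 further: spheroids exposed to drugs for seven days; 100% = DMSO vehicle control viability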
- assay-name: Anticancer human tumor 276233-004-R-J1-PDC patient-derived colon adenocarcinoma cell line growth inhibition [GQUAD]
- assay-conditions: second compound 3.16 µM; first compound 3.16 µM; active compounds read low

Quote viability, T/C reported for CC1COCCN1c1cc(C2(O)CC3CCC(C2)O3)c2cnn(-c3ccn[nH]3)c2n1 (stereo not given) + Cc1cnc(CNC(=O)c2c(=O)c3ccc(N4CCCN(C)CC4)nc3n3c2sc2ccccc23)cn1 please.
35.9%

Hello, please tell me recorded viability, T/C for this one: CC(C)(O)C1CCC(Nc2ccc3ncc(-c4cccc(C(F)(F)F)c4)n3n2)CC1 (stereo not given) + CN(C)c1ccc(Nc2c3ccc(NC(=O)CCN4CCCC4)cc3nc3cc(NC(=O)CCN4CCCC4)ccc23)cc1
46.8%

Return viability, T/C (reported value) for this compound: CCCS(=O)(=O)Nc1ccc(F)c(C(=O)c2c[nH]c3ncc(-c4ccc(Cl)cc4)cc23)c1F + CN(C)c1ccc(Nc2c3ccc(NC(=O)CCN4CCCC4)cc3nc3cc(NC(=O)CCN4CCCC4)ccc23)cc1
59.1%

Annotate the compound O=C(c1cc(Cc2n[nH]c(=O)c3ccccc23)ccc1F)N1CCN(C(=O)C2CC2)CC1 + CN(C)c1ccc(Nc2c3ccc(NC(=O)CCN4CCCC4)cc3nc3cc(NC(=O)CCN4CCCC4)ccc23)cc1 with its measured viability, T/C.
48.5%

Answer with the recorded viability, T/C of C=CCn1c(=O)c2cnc(Nc3ccc(N4CCN(C)CC4)cc3)nc2n1-c1cccc(C(C)(C)O)n1 + CN(C)c1ccc(Nc2c3ccc(NC(=O)CCN4CCCC4)cc3nc3cc(NC(=O)CCN4CCCC4)ccc23)cc1 only.
52.1%

Reference for the values: PubChem BioAssay AID2060496
